Tested on: Mus musculus
Experiment: Neurotoxicity in Swiss Webster mouse assessed as induction of senorimotor impairment at 40 mg/kg, ip administered 10 mins prior to testing and measured for 3 mins at 10 to 60 mins after drug administration by rotarod method
Type: toxicity, organism-based
Conditions: in vivo
RECORDED_ENDPOINT: Activity

1) [2H]C([2H])([2H])Oc1ccc2c(c1)C(=O)N1CCC[C@H]1c1c(C(=O)NCC)ncn1-2 | Non-Toxic
2) COc1ccc2c(c1)C(=O)N1CCC[C@H]1c1c(C(=O)N(C)C)ncn1-2 | Non-Toxic
3) CCOC(=O)c1ncn2c1[C@@H]1CCCN1C(=O)c1cc(O)ccc1-2 | Non-Toxic
4) [2H]C([2H])([2H])Oc1ccc2c(c1)C(=O)N1CCC[C@H]1c1c(C(=O)NC(C)(C)C)ncn1-2 | Toxic
5) [2H]C([2H])([2H])Oc1ccc2c(c1)C(=O)N1CCC[C@H]1c1c(C(=O)N(C)C)ncn1-2 | Non-Toxic
6) [2H]C([2H])([2H])Oc1ccc2c(c1)C(=O)N1CCC[C@H]1c1c(C(=O)OCC(C)C)ncn1-2 | Toxic
7) [2H]C([2H])([2H])Oc1ccc2c(c1)C(=O)N1CCC[C@H]1c1c(C(=O)O)ncn1-2 | Non-Toxic
8) [2H]C([2H])([2H])Oc1ccc2c(c1)C(=O)N1CCC[C@H]1c1c(C(=O)OC)ncn1-2 | Toxic
9) CNC(=O)c1ncn2c1[C@@H]1CCCN1C(=O)c1cc(OC)ccc1-2 | Toxic

* * *

Assay: Cmax in mouse blood at 5 mg/kg, ip by LC/MS/MS analysis
Type: ADME, organism-based
Parameters: dose 5 mg/kg, route intraperitoneal
RECORDED_ENDPOINT: Cmax (ng/mL)

1. COc1ccc2c(c1)C(=O)N1CCC[C@H]1c1c(C(=O)N(C)C)ncn1-2 | 691

* * *

CC50 at 48 h values by entry
Experiment: Cytotoxicity in human BEAS2B cells after 48 hrs by Cell-titer Glo reagent based assay
Design: species or system BEAS-2B
Settings: read-out: LD50
RECORDED_ENDPOINT: CC50 at 48 h

1. COc1ccc2c(c1)C(=O)N1CCC[C@H]1c1c(C(=O)SC(C)(C)C)ncn1-2 | > 100 µM
2. COc1ccc2c(c1)C(=O)N1CCC[C@H]1c1c(C(=O)N(C)C)ncn1-2 | > 400 µM
3. CNC(=O)c1ncn2c1[C@@H]1CCCN1C(=O)c1cc(OC)ccc1-2 | > 400 µM
4. COC(=O)c1ncn2c1[C@@H]1CCCN1C(=O)c1cc(OC)ccc1-2 | > 400 µM
5. [2H]C([2H])([2H])Oc1ccc2c(c1)C(=O)N1CCC[C@H]1c1c(C(=O)SCC)ncn1-2 | > 100 µM
6. [2H]C([2H])([2H])Oc1ccc2c(c1)C(=O)N1CCC[C@H]1c1c(C(=O)NC(C)(C)C)ncn1-2 | > 400 µM
7. [2H]C([2H])([2H])Oc1ccc2c(c1)C(=O)N1CCC[C@H]1c1c(C(=O)OC)ncn1-2 | > 400 µM
8. [2H]C([2H])([2H])Oc1ccc2c(c1)C(=O)N1CCC[C@H]1c1c(C(=O)OCC)ncn1-2 | > 400 µM
9. [2H]C([2H])([2H])Oc1ccc2c(c1)C(=O)N1CCC[C@H]1c1c(C(=O)NC3CC3)ncn1-2 | > 400 µM
10. [2H]C([2H])([2H])Oc1ccc2c(c1)C(=O)N1CCC[C@H]1c1c(C(=O)SC(C)(C)C)ncn1-2 | > 100 µM
11. CCOC(=O)c1ncn2c1[C@@H]1CCCN1C(=O)c1cc(O)ccc1-2 | > 400 µM
12. COc1ccc2c(c1)C(=O)N1CCC[C@H]1c1c(C(=O)OCC(C)C)ncn1-2 | > 200 µM
13. [2H]C([2H])([2H])Oc1ccc2c(c1)C(=O)N1CCC[C@H]1c1c(C(=O)NCC)ncn1-2 | > 400 µM
14. CC(C)(C)OC(=O)c1ncn2c1[C@@H]1CCCN1C(=O)c1cc(O)ccc1-2 | > 400 µM
15. [2H]C([2H])([2H])Oc1ccc2c(c1)C(=O)N1CCC[C@H]1c1c(C(=O)OC(C)(C)C)ncn1-2 | > 200 µM
16. [2H]C([2H])([2H])Oc1ccc2c(c1)C(=O)N1CCC[C@H]1c1c(C(=O)OC(C(F)(F)F)C(F)(F)F)ncn1-2 | > 400 µM
17. CCOC(=O)c1ncn2c1[C@@H]1CCCN1C(=O)c1cc(OC)ccc1-2 | > 400 µM
18. COc1ccc2c(c1)C(=O)N1CCC[C@H]1c1c(C(=O)NC(C)(C)C)ncn1-2 | > 400 µM

* * *

half-life at 10 µM values by entry
Test: Half life in mouse liver microsomes at 10 uM by LC-MS/MS analysis
Assay type: ADME, microsome
Conditions: liver microsomes
RECORDED_ENDPOINT: half-life at 10 µM (h)

1) [2H]C([2H])([2H])Oc1ccc2c(c1)C(=O)N1CCC[C@H]1c1c(C(=O)NCC)ncn1-2 | 4.55
2) CNC(=O)c1ncn2c1[C@@H]1CCCN1C(=O)c1cc(OC)ccc1-2 | 1.08
3) COc1ccc2c(c1)C(=O)N1CCC[C@H]1c1c(C(=O)OC(C)(C)C)ncn1-2 | 0.402
4) [2H]C([2H])([2H])Oc1ccc2c(c1)C(=O)N1CCC[C@H]1c1c(C(=O)OCC(C)C)ncn1-2 | 0.448
5) [2H]C([2H])([2H])Oc1ccc2c(c1)C(=O)N1CCC[C@H]1c1c(C(=O)OC)ncn1-2 | 4.75

These data points were gathered from ChEMBL document CHEMBL3992505.
